Value source: ChEMBL document CHEMBL1143703

Fold change reference
# Species on record: Oryctolagus cuniculus
# Assay overview: Activation of trypsin-like activity of rabbit reticulocyte 20S proteasome relative to control
Residues, ends and D or L forms follow the SMILES beside them. *: point of attachment. Boc = CC(C)(C)OC(=O)*; NHBn = c1ccc(CN*)cc1; Bn = c1ccc(C*)cc1
Quantity: Fold change

INSERT INTO results (compound, recorded_number) VALUES
  ('CC(C)(C)OC(=O)N[C@@H](Cc1ccc(OCc2ccccc2)cc1)C(=O)NCC(=O)N[C@@H](Cc1c[nH]c2ccccc12)C(=O)O (Boc-Tyr(Bn)-Gly-Trp-OH)', 1.8),
  ('CC(C)(C)OC(=O)NCCCCNC(=O)[C@H](Cc1c[nH]c2ccccc12)NC(=O)[C@H](CCCCNC(=O)OC(C)(C)C)NC(=O)[C@H](Cc1ccc(OCc2ccccc2)cc1)NC(=O)OC(C)(C)C', 1.9),
  ('CC(C)(C)OC(=O)N[C@@H](Cc1ccc(OCc2ccccc2)cc1)C(=O)N[C@@H](CCCN(C(=N)NC(=O)OCc1ccccc1)C(=O)OCc1ccccc1)C(=O)N[C@@H](Cc1c[nH]c2ccccc12)C(=O)NCc1ccccc1', 1.9),
  ('CC(C)(C)OC(=O)NCCCC[C@H](NC(=O)[C@H](Cc1ccc(OCc2ccccc2)cc1)NC(=O)OC(C)(C)C)C(=O)N[C@@H](Cc1c[nH]c2ccccc12)C(=O)NCc1ccccc1 (Boc-Tyr(Bn)-Lys(Boc)-Trp-NHBn)', 1.8),
  ('CCOC(=O)[C@@H](Cc1c[nH]c2c(-c3ccc(C[C@H](NC(=O)OC(C)(C)C)C(=O)N[C@H](CC(C)C)C(=O)OC)cc3OCc3ccccc3)cccc12)NC(=O)OCc1ccccc1', 1.4);

====

# Assay overview: Inhibition of chymotrypsin-like activity of rabbit reticulocyte 20S proteasome
# Set-up: species or system Oryctolagus cuniculus
pKi: −log10 of the molar value. Residues, ends and D or L forms follow the SMILES beside them. *: point of attachment. Boc = CC(C)(C)OC(=O)*; NHBn = c1ccc(CN*)cc1; NHPh = c1ccc(N*)cc1; Bn = c1ccc(C*)cc1
Quantity: pKi

INSERT INTO assay_data (compound, quantity, result) VALUES
  ('CC(C)(C)OC(=O)N[C@@H](Cc1ccc(O)cc1)C(=O)N[C@@H](CCCNC(=N)N)C(=O)N[C@@H](Cc1c[nH]c2ccccc12)C(=O)NCc1ccccc1 (Boc-Tyr-Arg-Trp-NHBn)', 'pKi', 5.92),
  ('COC(=O)[C@H](Cc1c[nH]c2c(Br)cccc12)NC(=O)[C@H](C)NC(=O)[C@H](Cc1ccc(OC)c(I)c1)NC(=O)OC(C)(C)C', 'pKi', 4.23),
  ('COC(=O)[C@@H]1Cc2c[nH]c3c(cccc23)-c2ccc(cc2OCc2ccccc2)C[C@H](NC(=O)OC(C)(C)C)C(=O)N[C@@H](CC(C)C)C(=O)N1', 'pKi', '< 4.00'),
  ('CC(C)(C)OC(=O)N[C@@H](Cc1ccc(OCc2ccccc2)cc1)C(=O)N[C@@H](CC(N)=O)C(=O)N[C@@H](Cc1c[nH]c2ccccc12)C(=O)NCc1ccccc1 (Boc-Tyr(Bn)-Asn-Trp-NHBn)', 'pKi', 4.23),
  ('COC(=O)[C@@H]1Cc2c[nH]c3c(cccc23)-c2ccc(cc2OC)C[C@H](NC(=O)OC(C)(C)C)C(=O)N[C@@H](CC(C)C)C(=O)N1', 'pKi', '< 4.00'),
  ('CCOC(=O)[C@H](Cc1c[nH]c2c(Br)cccc12)NC(=O)[C@H](CC(C)C)NC(=O)[C@H](Cc1ccc(OC)c(I)c1)NC(=O)OC(C)(C)C', 'pKi', '< 4.00'),
  ('NCCCC[C@H](NC(=O)[C@@H](N)Cc1ccc(OCc2ccccc2)cc1)C(=O)N[C@@H](Cc1c[nH]c2ccccc12)C(=O)Nc1ccc(O)cc1', 'pKi', 6.07),
  ('C[C@H](NC(=O)[C@H](Cc1ccc(OCc2ccccc2)cc1)NC(=O)OC(C)(C)C)C(=O)N[C@@H](Cc1c[nH]c2ccccc12)C(=O)O (Boc-Tyr(Bn)-Ala-Trp-OH)', 'pKi', '< 4.00'),
  ('CCOC(=O)[C@@H](Cc1c[nH]c2c(-c3ccc(C[C@H](NC(=O)OC(C)(C)C)C(=O)N[C@H](CC(C)C)C(=O)OC)cc3OCc3ccccc3)cccc12)NC(=O)OCc1ccccc1', 'pKi', '< 4.00'),
  ('CC(C)(C)OC(=O)N[C@@H](Cc1ccc(OCc2ccccc2)cc1)C(=O)NCC(=O)N[C@@H](Cc1c[nH]c2ccccc12)C(=O)O (Boc-Tyr(Bn)-Gly-Trp-OH)', 'pKi', '< 4.00'),
  ('CC(C)C[C@H](NC(=O)[C@H](Cc1ccc(OCc2ccccc2)cc1)NC(=O)OC(C)(C)C)C(=O)N[C@@H](Cc1c[nH]c2ccccc12)C(=O)Nc1ccccc1 (Boc-Tyr(Bn)-Leu-Trp-NHPh)', 'pKi', '< 4.00');
